- Test system: ABClonal #A2355, anti-H3K4me1
- test_description: Histone peptide microarray, ABclonal A2355;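 also: normalized to the highest peptide average per subarray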
- Assay type: binding
- run_parameters: Abclonal A2355 (anti-H3K4me1) hits
For each record, check the reported Avg Signal: if it is below 0.007 write yes (1), else write no (0).

substance: ARTK(Ac)QTARKSTGGK(Ac)APRK(Ac)QL-K(Biot)-NH2 [H3.1K4acK14acK18ac]
category: yes (1)

substance: ARTK(Me2)QTARK(Ac)STGGKAPRK(Ac)QL-K(Biot)-NH2 [H3.1K4me2K9acK18ac]
category: no (0)

substance: ATKAARKSAPATGGVK(Me2)KPHRYRPG-GK(Biotin)-OH [Peptide H3.1K36me2]
category: no (0)

substance: Ac-SGRGKGGKGLGK(Me)GGAKRHRKVLR-Peg-Biot [Peptide H4K12me1]
category: no (0)

substance: ARTK(Me2)QpTARKSTGGKAPRKQL-K(Biot)-NH2 [Peptide H3.1K4me2T6p]
category: no (0)

substance: ARTK(Me)QTARK(Me2)STGGKA-Peg-Biot [H3.1K4me1K9me2]
category: no (0)

substance: ARTK(Me2)QTARKSTGGKAPRKQL-K(Biot)-NH2 [Peptide H3.1K4me2]
category: no (0)

substance: ARTK(Me)QTARKSTGGKAPRKQL-K(Biot)-NH2 [Peptide H3.1K4me1]
category: no (0)

substance: ARTKQTARK(Me2)STGGK(Ac)APRKQL-K(Biot)-NH2 [H3.1K9me2K14ac]
category: no (0)

substance: ARTK(Me)QTARKSTGGKAPRK(Ac)QL-Peg-Biot [H3.1K4me1K18ac]
category: no (0)

substance: ARTK(Me3)QTAR(Me2s)K(Me3)STGGKAPRKQL-K(Biot)-NH2 [H3.1K4me3R8me2sK9me3]
category: yes (1)

substance: PEPAKSAPAPKK(Ac)GSK(Ac)K(Ac)AVTK(Ac)AQKK-Peg-Biot [H2BK12acK15acK16acK20ac]
category: yes (1)

substance: ARTK(N3)QTARKSTGGKAPRKQL-K(Biot)-NH2 [Peptide H3.1K4N3]
category: no (0)

substance: Ac-SGRGK(Me)GGKGLGKGGAKRHRKVLR-Peg-Biot [Peptide H4K5me1]
category: yes (1)

substance: Ac-APRKQLAT-NleAARKSAPS-Peg-Biot [Peptide H3.3K23-Nle]
category: yes (1)

substance: Ac-SGRGQGGQGLGK(Ac)GGAQRHRQVLR-Peg-Biot [H4K12acK5QK8QK16QK20Q]
category: yes (1)

substance: AR(Me2a)TKQTARK(Me2)STGGKAPRKQL-Peg-Biotin [H3.1R2me2aK9me2]
category: no (0)

substance: Ac-SGRGKGGKGLGKGGAK(Ac)RHRK(Ac)VLR-Peg-Biot [Peptide H4K16acK20ac]
category: yes (1)

###

Listing of recorded Avg Signal by entry.
- assay_target: CDYL2 chromo (Homo sapiens, UniProt Q8N8U2)
- Construct: 1-75; made in house; host or cells: E. coli BL21
- test_description: Histone peptide microarray, CDYL2 chromo
- Type: binding
- run_parameters: normalized histone peptide array signal, hits; hybridization with 1 M CDYL2 chromo (so in the source); two subarrays

substance: ARTK(Me3)QTARK(Me3)STGGKAPRKQL-K(Biot)-NH2 [H3.1K4me3K9me3]
Avg Signal: 0.4091
--
substance: Ac-TARK(Me2)STGGKAPRKQLATKAARK(Me2)SAP-Peg-K(Biot)-NH2 [H3.1K9me2K27me2]
Avg Signal: 1
--
substance: AR(Me2a)TKQTARK(Me2)STGGKAPRKQL-Peg-Biotin [H3.1R2me2aK9me2]
Avg Signal: 0.425
--
substance: ARTK(Me3)QTAR(Me2a)K(Me3)STGGKAPRKQL-K(Biot)-NH2 [H3.1K4me3R8me2aK9me3]
Avg Signal: 0.3995
--
substance: ARTK(Me3)QTARK(Me2)STGGKA-Peg-Biot [H3.1K4me3K9me2]
Avg Signal: 0.1809
--
substance: Ac-SGRGKGGKGLGKGGAK(Ac)RHRK(Ac)VLR-Peg-Biot [Peptide H4K16acK20ac]
Avg Signal: 0.04591
--
substance: Ac-APRKQLATKAAR(Me2a)K(Me3)SAPSTGG-Peg-Biot [H3.3R26me2aK27me3]
Avg Signal: 0.1727
--
substance: ARTKQTAR(Me2a)K(Me2)STGGKAPRKQL-K(Biot)-NH2 [H3.1R8me2aK9me2]
Avg Signal: 0.1889

###

- assay_target: CDYL2 chromo (Homo sapiens)
- Construct: 1-75; made in house; host or cells: E. coli BL21
- test_description: Histone peptide microarray, CDYL2 chromo
- Format: binding
- run_parameters: normalized histone peptide array signal, hits; hybridization with 1 M CDYL2 chromo (so in the source); two subarrays
- Method: Peptide microarrays were fabricated using an Aushon 2470 microarrayer and used as described ([Cornett et al., 2017]) with the following modifications. Protein and antibody hybridization steps were performed in buffer containing 25 mM HEPES pH 7.5, 100 mM NaCl, 0.5% BSA (w/v), and 0.1% NP-40. Slides were washed 3 × 5 min in PBS supplemented with 0.1% Tween-20 between each hybridization step. […]
Where no end group is shown, it is not given here. Peg = not defined here
Could you mark each record 1 if its Avg Signal falls strictly under 0.1, and -1 if it equals or exceeds it?

substance: ARTKQTAR(Me)K(Me3)STGGKAPRKQL-K(Biot)-NH2 [H3.1R8me1K9me3]
category: -1

substance: AGGK(Ac)AGK(Ac)DSGK(Ac)AKAKAVSR-Peg-Biot [H2A.Z.2K4acK7acK11ac]
category: 1

substance: ARTK(Me3)QTAR(Me2s)K(Me3)STGGKAPRKQL-K(Biot)-NH2 [H3.1K4me3R8me2sK9me3]
category: -1

substance: Ac-APRKQLATKAARK(Me3)SAPSTGG-Peg-Biot [Peptide H3.3K27me3]
category: -1

substance: ARTK(Me2)QTARK(Me2)STGGKA-Peg-Biot [H3.1K4me2K9me2]
category: -1

substance: ARTK(Me)QTARK(Me2)STGGKA-Peg-Biot [H3.1K4me1K9me2]
category: -1

substance: PEPAKSAPAPKKGSK(Ac)KAVTKAQKK-Peg-Biot (chain 2 KAVTKAQKK-{Peg-Biot}; not fully specified; reading uncertain) [Peptide H2BK15ac]
category: 1

substance: ARTKQTAR(Me2a)K(Me3)STGGKAPRKQL-K(Biot)-NH2 [H3.1R8me2aK9me3]
category: -1

###

- assay_target: CDYL2 chromo (Homo sapiens)
- Construct: 1-75; made in house; host or cells: E. coli BL21
- Sequence (Q8N8U2 1-75): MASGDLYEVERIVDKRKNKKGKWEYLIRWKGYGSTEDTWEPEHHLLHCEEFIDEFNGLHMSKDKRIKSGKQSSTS
- test_description: Histone peptide microarray, CDYL2 chromo
- Format: binding
- run_parameters: normalized histone peptide array signal, hits; hybridization with 1 M CDYL2 chromo (so in the source); two subarrays
// Avg Signal lookup, one value per entry

substance: ARTKQTARK(Me2)STGGKAPRKQL-K(Biot)-NH2 [H3.1K9me2 H3.1(1-20)]
Avg Signal: 0.2996
--
substance: Ac-SGRGK(Me)GGK(Me)GLGK(Me)GGAKRHRKVLR-Peg-Biot [H4K5me1K8me1K12me1]
Avg Signal: 0.4707
--
substance: Ac-APRKQLATKAARK(Me2)SAPSTGG-Peg-Biot [Peptide H3.3K27me2]
Avg Signal: 0.08888

###

Reported Avg Signal values follow for various substances
- assay_target: MPP8 chromo (Homo sapiens, UniProt Q99549)
- Construct: 50-118; made in house; host or cells: E. coli BL21
- Sequence (Q99549 50-118): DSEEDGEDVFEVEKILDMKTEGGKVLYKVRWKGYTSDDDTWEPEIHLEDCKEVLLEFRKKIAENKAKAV
- test_description: Histone peptide microarray, MPP8 chromo
- Assay type: binding
- run_parameters: normalized histone peptide array signal, hits; hybridization with 1 M MPP8 chromo (so in the source); two subarrays
Where no end group is shown, it is not given here. Peg = not defined here
reported_metric: Avg Signal

substance: ARTAQTARK(Me2)STGGKA-Peg-Biot [Peptide H3.1K4AK9me2]
assay_target: MPP8 chromo (Homo sapiens, UniProt Q99549)
reported_metric: Avg Signal
recorded_number: 0.07994

substance: ARTK(Me)QTARK(Me2)STGGKA-Peg-Biot [H3.1K4me1K9me2]
assay_target: MPP8 chromo (Homo sapiens, UniProt Q99549)
reported_metric: Avg Signal
recorded_number: 0.4754

substance: ARTKQTARK(Me2)STGGKAPRKQL-K(Biot)-NH2 [H3.1K9me2 H3.1(1-20)]
assay_target: MPP8 chromo (Homo sapiens, UniProt Q99549)
reported_metric: Avg Signal
recorded_number: 0.7317

substance: ARTKQTAR(Me)K(Me3)STGGKAPRKQL-K(Biot)-NH2 [H3.1R8me1K9me3]
assay_target: MPP8 chromo (Homo sapiens, UniProt Q99549)
reported_metric: Avg Signal
recorded_number: 0.8612

substance: Ac-APRKQLATKAAR(Me2a)K(Me3)SAPSTGG-Peg-Biot [H3.3R26me2aK27me3]
assay_target: MPP8 chromo (Homo sapiens, UniProt Q99549)
reported_metric: Avg Signal
recorded_number: 0.04277

substance: ARTK(Me2)QTARK(Me2)STGGKA-Peg-Biot [H3.1K4me2K9me2]
assay_target: MPP8 chromo (Homo sapiens, UniProt Q99549)
reported_metric: Avg Signal
recorded_number: 0.2515

substance: ARTKQTAR(Me2s)K(Me)STGGKAPRKQL-K(Biot)-NH2 [H3.1R8me2sK9me1]
assay_target: MPP8 chromo (Homo sapiens, UniProt Q99549)
reported_metric: Avg Signal
recorded_number: 0.1744

substance: ARTKQTARK(Me2)STGGK(Ac)APRKQL-K(Biot)-NH2 [H3.1K9me2K14ac]
assay_target: MPP8 chromo (Homo sapiens, UniProt Q99549)
reported_metric: Avg Signal
recorded_number: 0.7946

substance: ARTKQTAR(Me2a)K(Me2)STGGKAPRKQL-K(Biot)-NH2 [H3.1R8me2aK9me2]
assay_target: MPP8 chromo (Homo sapiens, UniProt Q99549)
reported_metric: Avg Signal
recorded_number: 0.6312

substance: ARTKQTAR(Me2s)K(Me3)STGGKAPRKQL-K(Biot)-NH2 [H3.1R8me2sK9me3]
assay_target: MPP8 chromo (Homo sapiens, UniProt Q99549)
reported_metric: Avg Signal
recorded_number: 1

substance: AR(Me2a)TKQTARK(Me2)STGGKAPRKQL-Peg-Biotin [H3.1R2me2aK9me2]
assay_target: MPP8 chromo (Homo sapiens, UniProt Q99549)
reported_metric: Avg Signal
recorded_number: 0.8941

substance: ARTK(Me3)QTAR(Me2a)K(Me3)STGGKAPRKQL-K(Biot)-NH2 [H3.1K4me3R8me2aK9me3]
assay_target: MPP8 chromo (Homo sapiens, UniProt Q99549)
reported_metric: Avg Signal
recorded_number: 0.8021

substance: ARTKQTAR(Me2a)K(Me3)STGGKAPRKQL-K(Biot)-NH2 [H3.1R8me2aK9me3]
assay_target: MPP8 chromo (Homo sapiens, UniProt Q99549)
reported_metric: Avg Signal
recorded_number: 0.8359

substance: PEPAKSAPAPKKGSK(Ac)KAVTKAQKK-Peg-Biot (chain 2 KAVTKAQKK-{Peg-Biot}; not fully specified; reading uncertain) [Peptide H2BK15ac]
assay_target: MPP8 chromo (Homo sapiens, UniProt Q99549)
reported_metric: Avg Signal
recorded_number: 0.04671

substance: Ac-APRKQLATK(Me3)AARKSAPATGG-Peg-K(Biot)-NH2 [Peptide H3.1K23me3]
assay_target: MPP8 chromo (Homo sapiens, UniProt Q99549)
reported_metric: Avg Signal
recorded_number: 0.09452

substance: ARTKQTARK(Me)STGGKAPRKQL-K(Biot)-NH2 [Peptide H3.1K9me1]
assay_target: MPP8 chromo (Homo sapiens, UniProt Q99549)
reported_metric: Avg Signal
recorded_number: 0.4905

substance: ARTK(Ac)QTARK(Me3)STGGKAPRKQL-K(Biot)-NH2 [H3.1K4acK9me3]
assay_target: MPP8 chromo (Homo sapiens, UniProt Q99549)
reported_metric: Avg Signal
recorded_number: 0.6556

substance: ARTK(Me3)QTARK(Me2)STGGKA-Peg-Biot [H3.1K4me3K9me2]
assay_target: MPP8 chromo (Homo sapiens, UniProt Q99549)
reported_metric: Avg Signal
recorded_number: 0.4645

substance: ARTKQTAR(Me)K(Me2)STGGKAPRKQL-K(Biot)-NH2 [H3.1R8me1K9me2]
assay_target: MPP8 chromo (Homo sapiens, UniProt Q99549)
reported_metric: Avg Signal
recorded_number: 0.5401

substance: ARTKQTAR(Me2s)K(Me2)STGGKAPRKQL-K(Biot)-NH2 [H3.1R8me2sK9me2]
assay_target: MPP8 chromo (Homo sapiens, UniProt Q99549)
reported_metric: Avg Signal
recorded_number: 0.6538

substance: ARTK(Me3)QTAR(Me2s)K(Me3)STGGKAPRKQL-K(Biot)-NH2 [H3.1K4me3R8me2sK9me3]
assay_target: MPP8 chromo (Homo sapiens, UniProt Q99549)
reported_metric: Avg Signal
recorded_number: 0.7903

substance: Ac-TARK(Me2)STGGKAPRKQLATKAARK(Me2)SAP-Peg-K(Biot)-NH2 [H3.1K9me2K27me2]
assay_target: MPP8 chromo (Homo sapiens, UniProt Q99549)
reported_metric: Avg Signal
recorded_number: 0.9552

substance: ARTKQTARK(Me3)pSTGGKAPRKQL-K(Biot)-NH2 [H3.1K9me3S10p]
assay_target: MPP8 chromo (Homo sapiens, UniProt Q99549)
reported_metric: Avg Signal
recorded_number: 0.04961

substance: Ac-SGRGK(Me)GGK(Ac)GLGK(Me)GGAKRHRKVLR-Peg-Biot [H4K5me1K8acK12me1]
assay_target: MPP8 chromo (Homo sapiens, UniProt Q99549)
reported_metric: Avg Signal
recorded_number: 0.009322

substance: ARTK(Me3)QTARK(Me3)STGGKAPRKQL-K(Biot)-NH2 [H3.1K4me3K9me3]
assay_target: MPP8 chromo (Homo sapiens, UniProt Q99549)
reported_metric: Avg Signal
recorded_number: 0.8973

substance: ARTKQTAR(Me2a)K(Me)STGGKAPRKQL-K(Biot)-NH2 [H3.1R8me2aK9me1]
assay_target: MPP8 chromo (Homo sapiens, UniProt Q99549)
reported_metric: Avg Signal
recorded_number: 0.4258
